- Test system: BT-549 breast
- Assay text: NCI-60 one-dose screen, 48 h (100 = growth as untreated, 0 = no growth, -100 = all killed)
- Experimental setup: 10 µM unless noted
The panel holds about 83,000 compounds, 20% with a hit somewhere; the sample as a whole holds those more often.
Reported property: growth (%)
Your answer is read as %, so omit the unit and give the number.

Qu. If you can, please state the reported growth value of COc1cc2c(c(OC)c1OC)-c1ccc(NN(C(=O)c3ccccc3)C(=O)c3ccccc3)c(=O)cc1[C@@H](NC(C)=O)CC2 (tested in a mixture with another compound) .
Ans. 37.3

Qu. Now this one: `COc1ccccc1[C@H]1c2[nH]c3ccccc3c2C[C@H]2C(=O)N(CCCCCCC(=O)NO)CC(=O)N12`
Ans. 67.8

Qu. Record: O=c1ccn(C2CCCO2)c(=O)[nH]1 (stereo unspecified)
Ans. 118

Qu. Another molecule to look at: `C/C(=C\CCc1ccoc1)CC/C=C(\C)CCCN1CCC(CO)CC1`
Ans. 54.2

Qu. Entry `CCSc1nnc2n(Cc3ccccc3)c(=O)c3c(C)c(C(N)=O)sc3n12` please
Ans. 88.9

Qu. Subsequent entry: `O=C1OCCCCCCCCCC#Cc2ccccc21`
Ans. 124

Qu. Then this molecule: O=C1Nc2ccccc2C12Nc1cc(Cl)ccc1S2 (stereo unspecified)
Ans. 76.2

Qu. Further, for `CCOC(=O)/C=C(/C)Sc1cc(O)c2ccccc2c1O` ?
Ans. -37.1

Qu. Continue with `Cc1cc(C(C)(C)C)cc(C)c1CC1=NCCN1`
Ans. 98.3

Qu. Entry to check: `O=C(NCCCO)c1cc(Cl)ccc1O`
Ans. 19.2

Qu. Now the same for `Clc1cccc(Cc2cn3cc(-c4ccccc4)nc3s2)c1`
Ans. 77.5

Hey, just so you know, these numbers are from PubChem BioAssay (NCI).
